biological target: CD28 (human) (UniProt P10747)
quantity-kind: RLU at 5.0 nM: Fold Increase over WT CD80-IgV-Fc (fold)
One number for each entry, in fold.

- CD80 IgV-Fc T13R/Q33R/E35D/M38I/M47L/V68M/E95V/L97Q (Fc fusion) VIHVTKEVKEVARLSCGHNVSVEELAQTRIYWRKDKKIVLTMMSGDLNIWPEYKNRTIFDITNNLSIMILALRPSDEGTYECVVLKYEKDAFKRVHQAEVTLSVKAD: 2.5
- CD80 IgV-Fc H18Y/E35D/M47V/V68M/L85M (Fc fusion) VIHVTKEVKEVATLSCGYNVSVEELAQTRIYWQKDKKMVLTMMSGDVNIWPEYKNRTIFDITNNLSIMILALRPSDEGTYECVVMKYEKDAFKREHLAEVTLSVKAD: 2.5
- CD80 IgV-Fc E35D/M47L/Y53F/V68M/A71G/K93R/E95V (Fc fusion) VIHVTKEVKEVATLSCGHNVSVEELAQTRIYWQKDKKMVLTMMSGDLNIWPEFKNRTIFDITNNLSIMILGLRPSDEGTYECVVLKYEKDAFRRVHLAEVTLSVKAD: 3.9

Asked: Please report RLU at 5.0 nM: Fold Increase over WT CD80-IgV-Fc for the following binder: CD80 IgV-Fc E35D/M47V/N48K/V68M/A71G/L85M (Fc fusion) VIHVTKEVKEVATLSCGHNVSVEELAQTRIYWQKDKKMVLTMMSGDVKIWPEYKNRTIFDITNNLSIMILGLRPSDEGTYECVVMKYEKDAFKREHLAEVTLSVKAD
Given back: 3.6
